Cited source: patent US20150315218A1

# assay-text: Single-dose oral toxicokinetic study of prodrugs in rats
# Format: in vivo, rat
# condition: male, CD, rat, plasma, oral, 5 mg/kg; read-out: C24 h
quantity-kind: concentration at 24 h (nM)

> print(dat)
                         structure.notation  measurement.unit  meas.value
1  COc1cnc(-n2cnc(C)n2)c2[nH]cc(C(=O)C(=O)N3CCN(C(=O)c4ccccc4)CC3)c12                nM          29

---

# assay-text: IV and PO pharmacokinetic studies of prodrug salts (Iab, Ibb, Icb) in the monkey, with historical parent data
# Format: in vivo, cynomolgus monkeys
# condition: cynomolgus monkey, plasma; monkey, historical parent, PO 5 mg/kg; read-out: Cmax (μM), PO
quantity-kind: Cmax (µM)

> print(dat)
                         structure.notation  measurement.unit  meas.value
1  COc1ncc(OC)c2c(C(=O)C(=O)N3CCN(C(=O)c4ccccc4)CC3)c[nH]c12                µM         5.8

---

# assay-text: Single-dose oral toxicokinetic study of prodrugs in rats
# Assay type: in vivo, rat
# condition: CD, rat, plasma; male rats, Iab 16 mg/kg PO; analyte = label; read-out: T½ (converted)
Listed here are compounds together with their documented half-life.
quantity-kind: half-life (h)

> print(dat)
                                   compound  meas.value
1  COc1cnc(OC)c2c1c(C(=O)C(=O)N1CCN(C(=O)c3ccccc3)CC1)cn2COP(=O)(O)O [Iab]        0.64
2  COc1ncc(OC)c2c(C(=O)C(=O)N3CCN(C(=O)c4ccccc4)CC3)c[nH]c12 [IVa]         3.2

---

# assay-text: Single-dose toxicokinetic and tolerability study of prodrugs in dogs
# Assay type: in vivo, dog
# condition: female, dog, plasma, po, Table 14: 180 (90 BID) mg/kg (142 IVa equiv.), Dry-filled capsule; Dogs #3201, #3202
quantity-kind: Cmax (µM)

> print(dat)
                                   compound  measurement.unit  meas.value
1  COc1ncc(OC)c2c(C(=O)C(=O)N3CCN(C(=O)c4ccccc4)CC3)c[nH]c12 [IVa]                µM         311

---

# assay-text: IV and PO pharmacokinetic studies of prodrug salts (Iab, Ibb, Icb) in the dog, with historical parent data
# Format: in vivo, beagle dogs
# condition: male, beagle, plasma, iv, 1.28 mg/kg, read-out: AUCtot
quantity-kind: AUC

> print(dat)
                         structure.notation  meas.value
1  COc1cnc(-n2cnc(C)n2)c2[nH]cc(C(=O)C(=O)N3CCN(C(=O)c4ccccc4)CC3)c12    9.8 µM·h

---

# assay-text: Single-dose toxicokinetic and tolerability study of prodrugs in dogs
# Format: in vivo, dog
# condition: male, dog, plasma, po, 250 mg/kg, dog 4101M, day 1, Icb 250 mg/kg (IVc equiv. 203) QD dry-filled capsules; emesis
quantity-kind: Cmax (µM)

> print(dat)
                         structure.notation  quantity.kind  meas.value
1  COc1cnc(-n2cnc(C)n2)c2[nH]cc(C(=O)C(=O)N3CCN(C(=O)c4ccccc4)CC3)c12           Cmax        92.6

---

# assay-text: Single-dose toxicokinetic and tolerability study of prodrugs in dogs
# Assay type: in vivo, dog
# condition: male, dog, plasma, po, 46 mg/kg, dog 3101M, day 8, Icb 46 mg/kg BID dry-filled capsules
quantity-kind: AUC(0-inf)

> print(dat)
                         structure.notation  quantity.kind  meas.value
1  COc1cnc(-n2cnc(C)n2)c2[nH]cc(C(=O)C(=O)N3CCN(C(=O)c4ccccc4)CC3)c12     AUC(0-inf)   1140 µM·h

---

# assay-text: Oral dose escalation study in rats (Study D of Ica; historical Study E of IVc)
# Format: in vivo
# condition: Sprague-Dawley, rat, plasma, oral, 75 mg/kg; read-out: C-24 hr
quantity-kind: concentration at 24 h (µM)

> print(dat)
                         structure.notation  meas.value
1  COc1cnc(-n2cnc(C)n2)c2[nH]cc(C(=O)C(=O)N3CCN(C(=O)c4ccccc4)CC3)c12         5.2

---

# assay-text: IV and oral rat PK (MAP) studies A, B, C of phosphate prodrugs and parent studies A1, B1, C1
# Type: in vivo, Sprague-Dawley rats
# condition: male, Sprague-Dawley, rat, plasma, po, 5 mg/kg, rats, historic, after PO dosing of parent 5 mpk; read-out: T1/2 p.o. (converted)
quantity-kind: half-life (h)

> print(dat)
                         structure.notation  meas.value
1  COc1ncc(OC)c2c(C(=O)C(=O)N3CCN(C(=O)c4ccccc4)CC3)c[nH]c12         1.9
2  O=C(C(=O)N1CCN(C(=O)c2ccccc2)CC1)c1c[nH]c2c(-n3ccnn3)ncc(F)c12         3.7

---

# assay-text: Effect of food on oral absorption of IVa in dogs after Iab or IVa capsules
# Type: in vivo, dog
# condition: dog, in vivo, po, 20 mg/kg, dogs, IVa Clinical Form Capsules, Fasting
quantity-kind: Tmax (h)

> print(dat)
                                   compound  meas.value
1  COc1ncc(OC)c2c(C(=O)C(=O)N3CCN(C(=O)c4ccccc4)CC3)c[nH]c12 [IVa]         3.3

---

Listed here are molecules together with their documented MRT.
# assay-text: IV and PO pharmacokinetic studies of prodrug salts (Iab, Ibb, Icb) in the rat, with historical parent data
# Assay type: in vivo, Sprague-Dawley rats
# condition: plasma, iv, 1 mg/kg, read-out: MRT
quantity-kind: MRT (h)

> print(dat)
                                   molecule  quantity.kind  meas.value
1  COc1cnc(-n2cnc(C)n2)c2[nH]cc(C(=O)C(=O)N3CCN(C(=O)c4ccccc4)CC3)c12 [IVc]            MRT         4.5
2  O=C(C(=O)N1CCN(C(=O)c2ccccc2)CC1)c1c[nH]c2c(-n3ccnn3)ncc(F)c12 [IVb]            MRT         5.6

---

# assay-text: Single-dose toxicokinetic and tolerability study of prodrugs in dogs
# Type: in vivo, dog
# condition: Table 14: 180 (90 BID) mg/kg (142 IVa equiv.), Dry-filled capsule; Dogs #3201, #3202
quantity-kind: Cmax (µM)

> print(dat)
                                   compound  quantity.kind  meas.value
1  COc1ncc(OC)c2c(C(=O)C(=O)N3CCN(C(=O)c4ccccc4)CC3)c[nH]c12 [IVa]           Cmax         248

---

# assay-text: Oral dose escalation study in rats (Study D of Ica; historical Study E of IVc)
# Type: in vivo
# condition: Sprague-Dawley, rat, plasma, po, 200 mg/kg
quantity-kind: Cmax

> print(dat)
                         structure.notation  quantity.kind  meas.value
1  COc1cnc(-n2cnc(C)n2)c2[nH]cc(C(=O)C(=O)N3CCN(C(=O)c4ccccc4)CC3)c12           Cmax       42 µM

---

# assay-text: IV and PO pharmacokinetic studies of prodrug salts (Iab, Ibb, Icb) in the monkey, with historical parent data
# Assay type: in vivo, cynomolgus monkeys
# condition: cynomolgus monkey, plasma, iv, 1 mg/kg; read-out: Vdss
Listed here are molecules together with their documented Vd.
quantity-kind: Vd (L/kg)

> print(dat)
                         structure.notation  quantity.kind  measurement.unit  meas.value
1  COc1cnc(-n2cnc(C)n2)c2[nH]cc(C(=O)C(=O)N3CCN(C(=O)c4ccccc4)CC3)c12             Vd              L/kg         0.4
2  O=C(C(=O)N1CCN(C(=O)c2ccccc2)CC1)c1c[nH]c2c(-n3ccnn3)ncc(F)c12             Vd              L/kg         1.2

---

# assay-text: Single-dose toxicokinetic and tolerability study of prodrugs in dogs
# Type: in vivo, dog
# condition: female, dog, plasma, po, Table 14: 180 (90 BID) mg/kg; Dogs #3201 (AUC from zero to 24 h), #3202
quantity-kind: AUC(0-inf) (µM·h)

> print(dat)
                         structure.notation  quantity.kind  meas.value
1  COc1ncc(OC)c2c(C(=O)C(=O)N3CCN(C(=O)c4ccccc4)CC3)c[nH]c12     AUC(0-inf)        3300

---

# assay-text: Single-dose oral toxicokinetic study of prodrugs in rats
# Format: in vivo, rat
# condition: male, Sprague Dawley, rat, plasma, po, 19 mg/kg; read-out: T1/2 (converted)
quantity-kind: half-life (h)

> print(dat)
                         structure.notation  measurement.unit  meas.value
1  O=C(C(=O)N1CCN(C(=O)c2ccccc2)CC1)c1c[nH]c2c(-n3ccnn3)ncc(F)c12                 h         2.1
2  O=C(C(=O)N1CCN(C(=O)c2ccccc2)CC1)c1cn(COP(=O)(O)O)c2c(-n3ccnn3)ncc(F)c12                 h         1.3
